- testMethodNotes: Pharmacokinetic evaluation in beagles
- Assay type: in vivo
- conditionDetails: both (Example 16), male (MYK-461), beagle, dog, plasma, intravenous injection, 0.5 mg/kg, read-out: Area under curve AUC
metric: AUC (ng·h/mL)
Expressed in ng·h/mL, but write only the number.

Fill in AUC for record CC(C)n1c(=O)cc(N[C@@H](C)c2ccccc2)[nH]c1=O [MYK-461, reference compound]
1380

Fill in AUC for record Cc1ccc(F)c([C@H](C)Nc2nc(=O)n(C3CCOCC3)c(=O)[nH]2)c1 [Example 16]
716

---

- testMethodNotes: Toxicokinetic evaluation of 14-day repeated intragastric administration to SD rats
- Assay type: in vivo
- conditionDetails: both sexes, SD, rat, plasma, po, 3 mg/kg, repeated intragastric 3.0 mg/kg, Day 1, read-out: Area under curve AUC
- Experimental: With SD rats as test animals, the plasma concentrations of the test compounds and the concentrations of the original forms of the compounds in the administration solutions were measured by LC/MS/MS at different time points after intragastric administration. The toxicokinetic performance of the compound disclosed herein was studied in SD rats and its toxicokinetic profile was evaluated. […]
metric: AUC (ng·h/mL)
Expressed in ng·h/mL, but write only the number.

Fill in AUC for record CC(C)n1c(=O)cc(N[C@@H](C)c2ccccc2)[nH]c1=O [MYK-461, reference compound]
5210

Measured values drawn from patent US20240010639A1 for this set.
